Each entry below carries its reported Ki.
target.under.test: Cytochrome P450 2D6 (Homo sapiens, UniProt P10635)
Sequence (P10635 whole entry): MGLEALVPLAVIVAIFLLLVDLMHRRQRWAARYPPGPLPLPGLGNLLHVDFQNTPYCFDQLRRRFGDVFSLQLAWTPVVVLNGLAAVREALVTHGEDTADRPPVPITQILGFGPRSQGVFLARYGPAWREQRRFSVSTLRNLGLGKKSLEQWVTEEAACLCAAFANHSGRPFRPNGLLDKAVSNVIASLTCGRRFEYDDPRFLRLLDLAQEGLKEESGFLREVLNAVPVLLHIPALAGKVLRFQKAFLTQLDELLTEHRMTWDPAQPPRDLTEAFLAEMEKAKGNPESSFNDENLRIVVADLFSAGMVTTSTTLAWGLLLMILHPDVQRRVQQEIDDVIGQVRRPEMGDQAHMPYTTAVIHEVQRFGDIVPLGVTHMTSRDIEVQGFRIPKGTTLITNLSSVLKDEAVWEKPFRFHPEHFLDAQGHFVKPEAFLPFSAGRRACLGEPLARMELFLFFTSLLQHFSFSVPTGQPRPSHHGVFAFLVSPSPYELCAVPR
Reply numerically in µM, unit not repeated.

Please review the entries below; each comes with its answer.
{"columns": ["compound", "Ki, µM"],
 "data": [
  ["OC(COc1ccccc1)CN1CCN(C(c2ccccc2)c2ccc(C(F)(F)F)cc2)CC1 (stereo not given)", 0.6],
  ["COc1ccc(CNC(=O)C(c2ccc(C)cc2)N2CCN(CC(O)COc3c(C)cccc3C)CC2)cc1 (stereo not given)", 3],
  ["COc1ccc(CNC(=O)C(c2ccc(C(F)(F)F)cc2)N2CCN(CC(O)COc3ccc(OC)cc3)CC2)cc1 (stereo not given)", 4],
  ["C=CCOCC(O)CN1CCN(C(c2ccccc2)c2ccc(Cl)cc2)CC1 (stereo not given)", 0.1]
]}

Now, please, on to the next compound.
Can you share its Ki? I mean this compound: COc1ccc(OCC(O)CN2CCN(C(C(=O)NCc3ccccc3)c3ccc(C)cc3)CC2)cc1 (stereo not given) 4
